# test system: JAK2 (Homo sapiens, UniProt O60674)
# Sequence (O60674 whole entry): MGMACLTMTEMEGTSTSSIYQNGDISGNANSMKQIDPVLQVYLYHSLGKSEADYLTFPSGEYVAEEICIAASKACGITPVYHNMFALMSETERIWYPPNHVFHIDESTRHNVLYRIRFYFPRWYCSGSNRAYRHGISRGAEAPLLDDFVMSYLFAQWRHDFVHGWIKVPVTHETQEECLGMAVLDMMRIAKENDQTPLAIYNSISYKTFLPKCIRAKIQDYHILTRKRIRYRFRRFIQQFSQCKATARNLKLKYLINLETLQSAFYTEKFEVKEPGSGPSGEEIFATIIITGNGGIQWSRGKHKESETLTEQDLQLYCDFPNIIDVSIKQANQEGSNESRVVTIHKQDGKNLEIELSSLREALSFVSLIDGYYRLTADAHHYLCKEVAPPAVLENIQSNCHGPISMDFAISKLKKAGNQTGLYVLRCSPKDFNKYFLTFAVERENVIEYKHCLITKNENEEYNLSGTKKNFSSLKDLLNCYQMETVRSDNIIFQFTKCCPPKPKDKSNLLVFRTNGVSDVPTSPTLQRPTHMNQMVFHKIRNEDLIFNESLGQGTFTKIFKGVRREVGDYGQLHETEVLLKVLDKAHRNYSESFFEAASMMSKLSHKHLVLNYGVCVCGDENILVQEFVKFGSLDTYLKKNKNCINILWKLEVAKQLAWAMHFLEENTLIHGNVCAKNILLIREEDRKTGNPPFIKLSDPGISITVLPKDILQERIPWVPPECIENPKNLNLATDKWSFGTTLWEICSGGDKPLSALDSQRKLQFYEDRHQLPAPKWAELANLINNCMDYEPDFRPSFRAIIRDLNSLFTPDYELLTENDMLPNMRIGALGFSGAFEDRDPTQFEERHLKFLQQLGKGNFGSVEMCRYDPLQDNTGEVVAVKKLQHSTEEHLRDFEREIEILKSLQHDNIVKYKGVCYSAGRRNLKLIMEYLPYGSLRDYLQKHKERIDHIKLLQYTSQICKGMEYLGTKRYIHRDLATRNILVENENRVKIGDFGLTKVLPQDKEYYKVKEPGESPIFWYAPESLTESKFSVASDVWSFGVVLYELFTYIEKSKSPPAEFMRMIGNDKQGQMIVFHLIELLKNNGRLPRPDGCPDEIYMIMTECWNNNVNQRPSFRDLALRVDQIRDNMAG
# test method notes: JAK2 Tyrosine Kinase Assay
# Assay type: biochemical
# stated conditions: ATP 30 μM; JAK2 1 nM; 60 min room temperature; read-out: Jak2(IC50)
outcome measure: IC50
Could you kindly put the unit after your number?

For orientation, consider the following solved cases.
* CO[C@H](C(=O)N1CCN(c2nc(Nc3cc(C)[nH]n3)c3cccn3n2)CC1)c1ccccc1 [Example 90] | 8.15 nM
* COc1cccc(CC(=O)N2CCN(c3nc(Nc4cc(C)[nH]n4)c4cccn4n3)CC2)c1 [Example 49] | 7.9 nM

Lab note: next compound to report on.
Considering Cc1cc(Nc2nc(N3CCN(C(=O)c4c(F)cccc4F)CC3)nn3cccc23)n[nH]1 [Example 20] , its IC50 with JAK2 (Homo sapiens, UniProt O60674) was recorded as 8.14 nM
